Listing of recorded Plant response rating, Giant foxtail by entry.
System: giant foxtail
Test: Test B pre/postemergence giant foxtail
Assay type: in vivo, Setaria faberii
Settings: Preemergence, Rate 500 g/ha; scale of 0 to 10 where 0 is no effect and 10 is complete control
Answer with a number only.

The examples below pair each entry with its known result.
{"MOLECULE": "C=CCn1c(=O)on(C(=O)N(c2c(C)cccc2C)C(C)COC)c1=O (stereo not drawn) [Compound 600]", "Plant response rating, Giant foxtail": 0}
{"MOLECULE": "CCOC(=O)CC(C(=O)OCC)n1c(=O)on(C(=O)N(c2ccc(Cl)cc2)C(C)C)c1=O (stereo not drawn) [Compound 681]", "Plant response rating, Giant foxtail": 9}
{"MOLECULE": "Cc1noc(C)c1Cn1c(=O)on(C(=O)N(c2ccc(F)cc2)C(C)C)c1=O [Compound 259]", "Plant response rating, Giant foxtail": 10}
{"MOLECULE": "CCN(C(=O)n1oc(=O)n(N(C)C)c1=O)C1CCCCC1 [Compound 274]", "Plant response rating, Giant foxtail": 9}
{"MOLECULE": "CC(=O)OCn1c(=O)on(C(=O)N(c2ccc(F)cc2)C(C)C)c1=O [Compound 292]", "Plant response rating, Giant foxtail": 0}

Could you tell me which Plant response rating, Giant foxtail is on file for CCOC(Cn1c(=O)on(C(=O)N(c2ccc(F)cc2)C(C)C)c1=O)OCC [Compound 629] ? 10

Likewise for CC(C)N(C(=O)n1oc(=O)n(Cc2nnc(Cl)s2)c1=O)c1ccc(F)cc1F [Compound 645] ? 7

Likewise for CC(C)N(C(=O)n1oc(=O)n(CC(=O)C2CCC2)c1=O)c1ccc(F)cc1 [Compound 640] ? 9

Likewise for CCOC(=O)CC(C(=O)OCC)n1c(=O)on(C(=O)N(c2ccc(F)cc2)C(C)C)c1=O (stereo not drawn) [Compound 615] ? 7

###

System: rape
Experiment: Test B pre/postemergence rape
Assay type: in vivo, Brassica napus
Details: Preemergence, Rate 125 g/ha; 0 is no effect, 10 is complete control
Listing of recorded Rape plant response rating (0 to 10 scale) by entry.
Answer with a number only.

Could you tell me which Rape plant response rating (0 to 10 scale) is on file for C=CCn1c(=O)on(C(=O)N(c2ccc(F)cc2)C(C)C)c1=O ? 10

Likewise for CC(C)N(C(=O)n1oc(=O)n(N(C)c2ccccc2)c1=O)c1ccc(F)cc1 ? 0

Likewise for COc1ccccc1Cn1c(=O)on(C(=O)N(c2ccc(F)cc2)C(C)C)c1=O ? 3

Likewise for CCN(C(=O)n1oc(=O)n(N(C)c2ccccc2)c1=O)C1CCCCC1 ? 0

Likewise for CN(C(=O)n1oc(=O)n(Cc2ccccc2)c1=O)c1ccccc1 ? 0

Likewise for CC(C)N(C(=O)n1oc(=O)[nH]c1=O)c1ccc(F)cc1 ? 0

Likewise for CCN(Cc1ccncc1)C(=O)n1oc(=O)n(C(C)C)c1=O ? 0

Likewise for CC(C)N(C(=O)n1oc(=O)n(C(C)c2ccccc2)c1=O)c1ccc(Cl)cc1 (centres unmarked) ? 0

###

Tested on: soybean
Experiment: Test B pre/postemergence soybean
Type: in vivo, Glycine max
Conditions: Rate 125 g/ha, Postemergence; scale of 0 to 10 where 0 is no effect and 10 is complete control
Listing of recorded Soybean plant response rating by entry.
Answer with a number only.

The examples below pair each entry with its known result.
{"MOLECULE": "CCc1cccc(CC)c1-n1c(=O)on(C(=O)N(c2ccccc2)C(C)C)c1=O", "Soybean plant response rating": 4}
{"MOLECULE": "CC(Cl)=CCn1c(=O)on(C(=O)N(c2ccc(F)cc2)C(C)C)c1=O", "Soybean plant response rating": 2}
{"MOLECULE": "CCC=CCn1c(=O)on(C(=O)N(c2ccc(F)cc2)C(C)C)c1=O", "Soybean plant response rating": 1}

We now examine a further molecule.
Could you tell me which Soybean plant response rating is on file for COCC(C)N(C(=O)n1oc(=O)n(-c2ccccc2C)c1=O)c1ccc(F)cc1 (stereo not shown) ? 1
